Tested on: NCI/ADR-RES ovarian
protocol summary: NCI-60 one-dose screen, 48 h (100 = growth as untreated, 0 = no growth, -100 = all killed)
details: 10 µM unless noted
This is part of a sample that, as a whole, favours compounds with a hit. Of some 83,000 tested, about 20% had one in any assay.
Returns: string. Value is Met if measured growth is below 70%, and Not met if it is greater than or equal to it.

- Oc1[nH]c2ccccc2c1N=Nc1nnc2n1N=C(c1ccccc1)CS2: Not met

input: I wonder whether `O=S(=O)(c1ccc(NC(=S)NC23CC4CC(CC(C4)C2)C3)cc1)N1CCCCC1` has growth below 70%. Can you tell?
output: Not met

input: Strictly below 70% in growth? COCCN(C(=O)Cc1cccs1)C(C(=O)NCc1ccc(OC)cc1)c1ccc(C(C)C)cc1 (configuration not stated)
output: Not met

input: Is growth strictly under 70% for the entry C=C(C)CCC(C)N1CCC(N2CCC(C(=O)NCCc3ccccc3)CC2)CC1 (configuration not stated) ?
output: Met

input: Quick check: does `CCCCc1ccc(NS(=O)(=O)c2cc3c4c(c2)CCN4C(=O)CC3)cc1` have growth under 70%?
output: Met

input: Bench note: check whether CSc1nc2c(c(=O)n1C)N=C1c3ccccc3C(=O)C1C(c1ccccc1)N2 (configuration not stated) shows growth below 70%
output: Met

input: Lab note: growth threshold 70%. Does this compound come in strictly under it? NC(CCc1nc2ccccc2c(=O)[nH]1)C(=O)O (configuration not stated)
output: Not met

input: Take the compound `NCCOc1ncccc1/C=C1\c2ccccc2-c2ccc(F)cc21` and say whether its growth is less than 70%.
output: Met

input: Lab log: compare recorded growth with 70%; is it strictly lower for `CCOc1cccc(/C=N\Nc2nc(=O)cc(C(=O)OC)s2)c1O` ?
output: Met

input: Input `COC(=O)c1c2c(c(C)[n+]([O-])c1C)C(=O)C=C(NCc1ccc(F)c(F)c1)C2=O` ; condition: growth strictly below 70%. Does it hold?
output: Met

input: Find out if reported growth for `NCCCNc1nc2ccccc2c2c(=O)c3cc(F)ccc3sc12` is less than 70%
output: Met

input: Given `Nc1ccc(-c2nc3cc(Oc4ccc(Oc5ccc6[nH]c(-c7ccc(N)cc7)nc6c5)cc4)ccc3[nH]2)cc1` , is recorded growth strictly lower than 70%?
output: Not met

input: Consider the compound COc1ccc(C2=NN(/C=C3\SC(=O)NC3=Nc3ccc(F)cc3)C(c3ccc(F)cc3)C2)cc1 (configuration not stated) . Is its growth strictly less than 70%?
output: Not met

input: Lab note: confirm whether the reported growth for this compound is below 70%, equality not counting. compound: `O=C1/C(=C/c2ccc(O)cc2)COc2ccc(O)c(O)c21`
output: Met

input: # TODO verify growth < 70% strictly for this compound: `CC(=S)NC(=O)C(=O)/C=C1/NC(=O)C(=O)S1`
output: Not met

input: Below 70% on growth? Entry `O=C(CN1C(=O)/C(=C\c2ccc(Cl)cc2)SC1=S)Nc1ncc(Cc2ccc(Cl)cc2)s1`
output: Not met

input: Take the compound `O=C(N=Nc1c(O)[nH]c2ccccc12)c1oc2ccccc2c1CN1CCN(c2ccccc2)CC1` and say whether its growth is less than 70%.
output: Met

input: Regarding `COc1ccc(/C=C2\NC(=O)NC2=O)cc1O` , kindly confirm whether its growth is beneath 70%.
output: Not met

input: A record lists `Cc1ccc(N=NC2C(=O)N(c3ccc(Cl)cc3)N(c3ccc(Cl)cc3)C2=O)cc1` . Is its growth below 70%?
output: Not met
